Entry source: patent US5681964A

assay: t1/2 in serum (Table 1); assay type: in vitro ADME; conditions: read-out: t1/2 in serum
measure.name: half-life (min)

INSERT INTO assay_data (compound, measure_name, quantitative_readout) VALUES
  ('COc1ccc2cc(C(C)C(=O)OCCOCCOCCOCCOCCOCCO)ccc2c1 (stereo not drawn) [Compound G-220.1]', 'half-life', 3.7),
  ('COc1ccc2cc(C(C)C(=O)OCCOCCOCCOCCOC(=O)C(C)c3ccc4cc(OC)ccc4c3)ccc2c1 (stereo not drawn) [Compound G-219.2]', 'half-life', 26),
  ('CC(C(=O)OCCOCCOCCOCCOC(=O)C(C)c1ccc(-c2ccccc2)c(F)c1)c1ccc(-c2ccccc2)c(F)c1 (stereo not drawn) [Compound G-202.2]', 'half-life', 220),
  ('CC(C(=O)OCCOCCOCCOCCO)c1ccc(-c2ccccc2)c(F)c1 (stereo not drawn) [Compound G-202.1]', 'half-life', 32),
  ('CC(C(=O)OCCOCCOCCO)c1ccc(-c2ccccc2)c(F)c1 (stereo not drawn) [Compound G-60]', 'half-life', 45),
  ('COc1ccc2cc(C(C)C(=O)OCCOCCOC(=O)C(C)c3ccc4cc(OC)ccc4c3)ccc2c1 (stereo not drawn) [Compound G-195.2]', 'half-life', 75);

###

test: t1/2 in PB (7.4) (Table 1); type: physicochemical; conditions: pH 7.4; PB (7.4); read-out: t1/2 in PB (7.4) (converted)
Values of half-life strictly less than 200 h map to Fulfilled, and values of at least 200 h map to Not fulfilled.

INSERT INTO measurements (molecule, class_name) VALUES
  ('CC(C(=O)OCCOCCOCCO)c1ccc(-c2ccccc2)c(F)c1 (centres unmarked)', 'Fulfilled'),
  ('COc1ccc2cc(C(C)C(=O)OCCOCCOCCOCCO)ccc2c1 (centres unmarked)', 'Not fulfilled'),
  ('COc1ccc2cc(C(C)C(=O)OCCOCCO)ccc2c1 (centres unmarked)', 'Fulfilled'),
  ('CC(C(=O)OCCOCCOCCOCCO)c1ccc(-c2ccccc2)c(F)c1 (centres unmarked)', 'Fulfilled'),
  ('COc1ccc2cc(C(C)C(=O)OCCOCCOCCO)ccc2c1 (centres unmarked)', 'Not fulfilled');

###

assay: t1/2 in serum (Table 1); assay type: in vitro ADME; conditions: read-out: t1/2 in serum
Quick reference: half-life of the listed items.
measure.name: half-life

INSERT INTO assay_data (molecule, result) VALUES
  ('CC(C(=O)OCCOCCOCCOCCOCCOCCO)c1ccc(-c2ccccc2)c(F)c1 (stereo not shown) [TC-242.2, hexaethylene glycol flurbiprofenate]', '22 min'),
  ('COc1ccc2cc(C(C)C(=O)OCCOCCOCCOCCOCCOCCOC(=O)C(C)c3ccc4cc(OC)ccc4c3)ccc2c1 (stereo not shown)', '50 min'),
  ('COc1ccc2cc(C(C)C(=O)OCCOCCOCCO)ccc2c1 (stereo not shown)', '13 min'),
  ('COc1ccc2cc(C(C)C(=O)OCCOCCO)ccc2c1 (stereo not shown)', '58 min'),
  ('COc1ccc2cc(C(C)C(=O)OCCOCCOCCOC(=O)C(C)c3ccc4cc(OC)ccc4c3)ccc2c1 (stereo not shown)', '50 min'),
  ('CC(C(=O)OCCOCCOCCOCCOCCOCCOC(=O)C(C)c1ccc(-c2ccccc2)c(F)c1)c1ccc(-c2ccccc2)c(F)c1 (stereo not shown) [TC-242.1, hexaethylene glycol bis-flurbiprofenate]', '167 min'),
  ('COc1ccc2cc(C(C)C(=O)OCCOCCOCCOCCO)ccc2c1 (stereo not shown)', '5 min');

###

assay: Solubility (Table 1); assay type: physicochemical; conditions: read-out: Solubility
measure.name: solubility (µg/mL)

INSERT INTO results (compound, measure_name, value_comparator, quantitative_readout) VALUES
  ('COc1ccc2cc(C(C)C(=O)OCCOCCOCCOC(=O)C(C)c3ccc4cc(OC)ccc4c3)ccc2c1 (centres unmarked)', 'solubility', '<', 0.1),
  ('CC(C(=O)OCCOCCOCCOCCOC(=O)C(C)c1ccc(-c2ccccc2)c(F)c1)c1ccc(-c2ccccc2)c(F)c1 (centres unmarked)', 'solubility', '<', 0.1),
  ('COc1ccc2cc(C(C)C(=O)OCCOCCOCCOCCO)ccc2c1 (centres unmarked)', 'solubility', '=', 1120),
  ('COc1ccc2cc(C(C)C(=O)OCCOCCOCCOCCOCCOCCO)ccc2c1 (centres unmarked)', 'solubility', '=', 6430),
  ('CC(C(=O)OCCOCCOCCOCCOCCOCCOC(=O)C(C)c1ccc(-c2ccccc2)c(F)c1)c1ccc(-c2ccccc2)c(F)c1 (centres unmarked) [TC-242.1, hexaethylene glycol bis-flurbiprofenate]', 'solubility', '<', 0.1);

###

test: t1/2 in PB (7.4) (Table 1); assay type: physicochemical; settings: PB (7.4); result in words
measure.name: t1/2 in PB (7.4)

INSERT INTO measurements (compound, result) VALUES
  ('CC(C(=O)OCCOCCOCCOCCOCCOCCO)c1ccc(-c2ccccc2)c(F)c1 (centres unmarked) [TC-242.2, hexaethylene glycol flurbiprofenate]', 'several days'),
  ('CC(C(=O)OCCOCCOCCOCCOCCOCCOC(=O)C(C)c1ccc(-c2ccccc2)c(F)c1)c1ccc(-c2ccccc2)c(F)c1 (centres unmarked) [TC-242.1, hexaethylene glycol bis-flurbiprofenate]', 'very slow'),
  ('CC(C(=O)OCCOCCOCCOCCOC(=O)C(C)c1ccc(-c2ccccc2)c(F)c1)c1ccc(-c2ccccc2)c(F)c1 (centres unmarked) [Compound G-202.2]', 'low solubility'),
  ('COc1ccc2cc(C(C)C(=O)OCCOCCOCCOC(=O)C(C)c3ccc4cc(OC)ccc4c3)ccc2c1 (centres unmarked) [Compound G-192.2]', 'low solubility'),
  ('COc1ccc2cc(C(C)C(=O)OCCOCCOCCOCCOC(=O)C(C)c3ccc4cc(OC)ccc4c3)ccc2c1 (centres unmarked) [Compound G-219.2]', 'very slow'),
  ('COc1ccc2cc(C(C)C(=O)OCCOCCOCCOCCOCCOCCOC(=O)C(C)c3ccc4cc(OC)ccc4c3)ccc2c1 (centres unmarked) [Compound G-220.2]', 'very slow'),
  ('COc1ccc2cc(C(C)C(=O)OCCOCCOC(=O)C(C)c3ccc4cc(OC)ccc4c3)ccc2c1 (centres unmarked) [Compound G-195.2]', 'low solubility'),
  ('COc1ccc2cc(C(C)C(=O)OCCOCCOCCOCCOCCOCCO)ccc2c1 (centres unmarked) [Compound G-220.1]', 'several days');

###

Form field: solubility (one value per entry).
assay: Solubility (Table 1); assay type: physicochemical; conditions: read-out: Solubility
measure.name: solubility (µg/mL)

INSERT INTO measurements (molecule, unit_name, value_comparator, quantitative_readout) VALUES
  ('COc1ccc2cc(C(C)C(=O)OCCOCCOC(=O)C(C)c3ccc4cc(OC)ccc4c3)ccc2c1 (centres unmarked)', 'µg/mL', '<', 0.1),
  ('CC(C(=O)OCCOCCOCCOCCOCCOCCO)c1ccc(-c2ccccc2)c(F)c1 (centres unmarked) [TC-242.2, hexaethylene glycol flurbiprofenate]', 'µg/mL', '=', 445),
  ('COc1ccc2cc(C(C)C(=O)OCCOCCOCCOCCOCCOCCOC(=O)C(C)c3ccc4cc(OC)ccc4c3)ccc2c1 (centres unmarked)', 'µg/mL', '<', 0.1),
  ('CC(C(=O)OCCOCCOCCOCCO)c1ccc(-c2ccccc2)c(F)c1 (centres unmarked)', 'µg/mL', '=', 228),
  ('COc1ccc2cc(C(C)C(=O)OCCOCCOCCOCCOC(=O)C(C)c3ccc4cc(OC)ccc4c3)ccc2c1 (centres unmarked)', 'µg/mL', '<', 0.1),
  ('CC(C(=O)OCCOCCOCCO)c1ccc(-c2ccccc2)c(F)c1 (centres unmarked)', 'µg/mL', '=', 135),
  ('COc1ccc2cc(C(C)C(=O)OCCOCCO)ccc2c1 (centres unmarked)', 'µg/mL', '=', 553),
  ('COc1ccc2cc(C(C)C(=O)OCCOCCOCCO)ccc2c1 (centres unmarked)', 'µg/mL', '=', 943);

###

experiment: Solubility (Table 1); format: physicochemical
measure.name: solubility (µg/mL)

INSERT INTO measurements (chemical_smiles, quantitative_readout) VALUES
  ('CC1(C)O[C@@H]2C[C@H]3[C@@H]4CCC5=CC(=O)C=C[C@]5(C)[C@@]4(F)[C@@H](O)C[C@]3(C)[C@]2(C(=O)COC(=O)OCCOCCO)O1', 74),
  ('CC1(C)O[C@@H]2C[C@H]3[C@@H]4CCC5=CC(=O)C=C[C@]5(C)[C@@]4(F)[C@@H](O)C[C@]3(C)[C@]2(C(=O)COC(=O)OCCOCCOCCOCCO)O1', 391);

###

test: t1/2 in serum (Table 1); assay type: in vitro ADME
Reported half-life values are given for each entry in this list.
measure.name: half-life (h)

INSERT INTO assay_data (chemical_smiles, unit_name, quantitative_readout) VALUES
  ('CC1(C)O[C@@H]2C[C@H]3[C@@H]4CCC5=CC(=O)C=C[C@]5(C)[C@@]4(F)[C@@H](O)C[C@]3(C)[C@]2(C(=O)COC(=O)OCCOCCOCCOCCO)O1', 'h', 3.8),
  ('CC1(C)O[C@@H]2C[C@H]3[C@@H]4CCC5=CC(=O)C=C[C@]5(C)[C@@]4(F)[C@@H](O)C[C@]3(C)[C@]2(C(=O)COC(=O)OCCOCCO)O1', 'h', 0.167);
